result_type: melting point

- CN1c2ccc(NC(=S)Nc3ccc(C(F)(F)F)cc3)cc2C(C)(C)C(O)C1(C)C (centres unmarked) [Compound 13d]: 105 to 107 °C
- CN1c2ccc(NC(=O)Nc3ccc(C(F)(F)F)cc3)cc2C(C)(C)C(=O)C1(C)C [Compound 11c]: 198 to 199 °C
- CC1(C)CCOc2ccc(NC(=S)Nc3ccc(OC(F)(F)F)cc3)cc21: 153 to 154 °C
- CN1c2ccc(NC(=O)Nc3ccc(C(F)(F)F)cc3)cc2C(C)(C)C(O)C1(C)C (centres unmarked) [Compound 13c]: 213 to 215 °C

Alright, here's another compound for you.
**Query** Quick check: melting point of CN1c2ccc(NC(=O)Nc3ccc(OC(F)(F)F)cc3)cc2C(C)(C)C(O)C1(C)C (centres unmarked) [Compound 13e] ?
**Result** 188 to 189 °C

* * *

Tested on: human ovarian cancer cell line A2780
assay_procedure: Growth inhibition assay (CellTiter 96 Non-Rad Cell Proliferation Assay)
Assay type: cell-based
test_parameters: Homo sapiens, A2780, 72 h, Table 2, tetrahydroquinoline-containing members
result_type: IC50

- CC1(C)CC[N+](C)(C)c2ccc(NC(=O)Nc3ccc([N+](=O)[O-])cc3)cc21: 6.6 µM

**Query** Quick check: IC50 of CC1(C)CCNc2ccc(NC(=S)Nc3ccc(OC(F)(F)F)cc3)cc21 ?
**Result** 7.1 µM

**Query** Quick check: IC50 of CN1c2ccc(NC(=S)Nc3ccc(OC(F)(F)F)cc3)cc2C(C)(C)C(=O)C1(C)C [Compound 11f] ?
**Result** 5.4 µM

**Query** Quick check: IC50 of CC1(C)CCNc2ccc(NC(=S)Nc3ccc([N+](=O)[O-])cc3)cc21 ?
**Result** 7.1 µM

* * *

Tested on: human ovarian cancer cell line A2780
assay_procedure: Growth inhibition assay (CellTiter 96 Non-Rad Cell Proliferation Assay)
Assay type: cell-based
test_parameters: Homo sapiens, A2780, 72 h, Table 2, tetrahydroquinoline-containing members
Overview of recorded IC50 for various compounds
Field format: number, assumed µM, no unit text.

**Query** Quick check: IC50 of CC1(C)CCNc2ccc(NC(=S)Nc3ccc(C(F)(F)F)cc3)cc21 ?
**Result** 6

**Query** Quick check: IC50 of CN1c2ccc(NC(=O)Nc3ccc([N+](=O)[O-])cc3)cc2C(C)(C)C(O)C1(C)C (stereo not shown) [Compound 13a] ?
**Result** 8.4

**Query** Quick check: IC50 of CN1c2ccc(NC(=O)Nc3ccc([N+](=O)[O-])cc3)cc2C(C)(C)C(=O)C1(C)C [Compound 11a] ?
**Result** 3.8

**Query** Quick check: IC50 of CN1c2ccc(NC(=O)Nc3ccc(OC(F)(F)F)cc3)cc2C(C)(C)C(O)C1(C)C (stereo not shown) [Compound 13e] ?
**Result** 7.8
